System: HOP-92
Assay: NCI tumour cell line growth inhibition, 48 h
Activity calls are given as the source filed them. No stated cut-off is given here; in the data, active = GI50 up to about 1.1 µM and inactive = higher.
Assign a class; possible classes are Yes = active, No = inactive

The examples below pair each entry with its known result.
1) O=C(CC(C(=O)c1cccs1)c1ccccc1)c1ccccc1O (configuration not stated) ... No
2) Cn1ccc(=NS(=O)(=O)c2ccccc2)cc1 ... No
3) COC(=O)[C@](NC(=O)OCc1ccccc1)([C@@H](C)[S+]([O-])c1ccc(C)cc1)C(F)(F)F (some centres not stated) ... No

Dear colleague, could you share the recorded outcome for CC(=O)OC1C2CCC1C1C2N=NN1c1ccc([N+](=O)[O-])cc1 (configuration not stated) when you have a moment?
No

Dear colleague, could you share the recorded outcome for COc1cc(C)c(/C=C/C(=O)N2C(=O)OC[C@@H]2c2ccccc2)c(C)c1 when you have a moment?
No

Dear colleague, could you share the recorded outcome for COc1cc(OC)c2c(=O)c3cccc(C)c3n(C)c2c1 when you have a moment?
No

Dear colleague, could you share the recorded outcome for O=C1c2ccccc2NC(=S)[C@@H]2CCCN12 when you have a moment?
No

====

Reported GI50 values are given for each entry in this list.
System: SNB-78
Experiment: NCI tumour cell line growth inhibition, 48 h
Calls of active or inactive are those of the source. Rule as the data show it: active = GI50 up to about 1.1 µM and inactive = higher.

Field: example entries. Status: answers known.
1) Nc1ccn(C2CCC(CO)O2)c(=O)n1 (stereo not given) ... > 65.6 µM (inactive)
2) Cc1ccc(O)c(C(=O)CCCC(=O)c2cc(C)ccc2O)c1 ... 55.8 µM (inactive)
3) CC(=O)OC1CC[C@@]2(C)C(CC(OC3OC(CO)C(O)C(O)C3O)[C@]3(C)C2CCC24CC23CC[C@H]4C(C)CC(O)[C@@H](O)C(C)(C)O)C1(C)C (stereo not given in full) ... > 5 µM (inactive)
4) O=C1CC(c2c(-c3ccccc3)[nH]c3ccccc23)C(=O)N1 (stereo not given) ... > 100 µM (inactive)

For the molecule shown here, O=C1C(Cl)C(c2cc(Br)ccc2O)N1n1cnc2ccccc2c1=O (stereo not given) , give the reported GI50.
30.9 µM (inactive)

====

Tested on: UACC-62
Test: NCI tumour cell line growth inhibition, 48 h
Active and inactive are the calls of the source. No stated cut-off is given here; in the data, active = GI50 up to about 1.1 µM and inactive = higher.
valueKind: GI50

1) Cc1cc(-n2nnc(C(=O)O)c2-c2ccccc2)c2ccc(Cl)cc2n1 ... > 100 µM (inactive)
2) CN(C)CC1CCC/C(=C\c2ccc(OC(=O)/C=C/c3ccc(Cl)cc3)cc2)C1=O (stereo not given) ... 8.81 µM (inactive)
3) CC12CC(OC(=O)[C@]1(C)O)[C@@H]([C@]1(O)CC[C@H]3[C@@H]4C[C@H]5O[C@]56[C@@H](O)C=CC(=O)[C@]6(C)[C@H]4CC[C@@]31C)C2 (stereo not given in full) ... 14.6 µM (inactive)
4) CC(=O)N1C(NN(C)C)CCN1c1ccccc1 (stereo not given) ... > 10 µM (inactive)

Let's switch to this molecule now.
Form: Entry = Nc1c(-c2nc3ccccc3o2)sc(=S)n1-c1ccc(Cl)cc1 | System = UACC-62 | GI50 = ____
0.452 µM (active)

====

Test system: BT-549
Test: NCI tumour cell line growth inhibition, 48 h
The source made the active and inactive calls. Cut-off read from the data, not from the text of the source: active = GI50 up to about 1.1 µM and inactive = higher.
Assign a class; possible classes are true (1) = active, false (0) = inactive

Dear colleague, could you share the recorded outcome for c1ccc(Cn2c(-c3ccc(-c4ccccc4)cc3)cc3ccccc32)cc1 when you have a moment?
false (0)

Dear colleague, could you share the recorded outcome for COc1ccc(-n2cnc3c(NC(CCSC)C(=O)O)ncnc32)cc1 (stereo not drawn) when you have a moment?
false (0)

Dear colleague, could you share the recorded outcome for CCN(CC(=O)O)CC(=O)O when you have a moment?
false (0)

Dear colleague, could you share the recorded outcome for CCN(CC)CCSc1c(C(C)=O)c(=O)n(-c2ccccc2)c(=S)n1-c1ccccc1 when you have a moment?
false (0)

Dear colleague, could you share the recorded outcome for CCOC(=O)C(=O)NNc1nc2c(s1)C(=O)c1ccccc1C2=O when you have a moment?
false (0)

Dear colleague, could you share the recorded outcome for Cc1nc(-c2cc3cc([N+](=O)[O-])ccc3oc2=O)cs1 when you have a moment?
false (0)
